// data source = BindingDB's records for doi:10.1021/jm015578d

Molecular target: Amine oxidase [flavin-containing] A (Bos taurus)
Sequence (P21398 whole entry): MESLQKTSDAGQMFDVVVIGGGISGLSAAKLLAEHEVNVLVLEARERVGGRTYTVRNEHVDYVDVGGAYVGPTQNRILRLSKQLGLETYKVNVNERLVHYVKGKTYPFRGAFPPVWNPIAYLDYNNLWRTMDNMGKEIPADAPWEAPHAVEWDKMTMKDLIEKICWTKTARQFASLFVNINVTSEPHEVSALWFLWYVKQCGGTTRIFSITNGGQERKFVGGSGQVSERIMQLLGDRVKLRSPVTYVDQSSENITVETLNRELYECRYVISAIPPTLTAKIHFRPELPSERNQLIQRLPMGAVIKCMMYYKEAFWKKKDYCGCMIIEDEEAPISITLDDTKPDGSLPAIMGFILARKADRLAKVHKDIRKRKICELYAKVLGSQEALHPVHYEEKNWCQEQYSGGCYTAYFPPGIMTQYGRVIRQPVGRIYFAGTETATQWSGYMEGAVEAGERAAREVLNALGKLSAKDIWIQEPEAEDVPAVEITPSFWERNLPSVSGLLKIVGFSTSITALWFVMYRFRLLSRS
Measurement Kind: Ki (nM)
Kindly provide the numeric value in nM only, without the unit symbol.

Please look at this molecule and report its Ki: O=C1O[C@@H](CO)CN1n1cccc1
270
